The reported numbers originate from paper PMC9511483.

assay: BRlogD chromatographic lipophilicity (XBridge Shield RP18); assay type: physicochemical; settings: XBridge Shield RP18 HPLC column; 60% ACN, ammonium acetate pH 7.0
quantity: chromatographic logD
No unit in the answer, only the number.

# lookup: chromatographic logD of Cc1ncsc1-c1ccc(CNC(=O)[C@@H]2C[C@H](O)CN2C(=O)[C@@H](NC(=O)COCCOCCOCCOCCOCCOCC(=O)N[C@H](C(=O)N2C[C@@H](O)C[C@H]2C(=O)NCc2ccc(-c3scnc3C)cc2)C(C)(C)C)C(C)(C)C)cc1
1.38
